Tested on: Klebsiella pneumoniae
procedure text: Growth inhibition of Klebsiella pneumoniae K66-45 after 20 hrs
test readout: MIC

CC(=O)SCC(CCCCc1ccccc1)P(=O)(O)O (configuration not stated); > 500 µg/mL
CCOP(=O)(OCC)C(CCCc1ccccc1)CSC(C)=O (configuration not stated); > 1000 µg/mL
CC(=O)SCC(CCCc1ccccc1)P(=O)(O)O (configuration not stated); > 500 µg/mL
O=P(O)(O)C(CS)CCc1ccccc1 (configuration not stated); > 500 µg/mL
CCOP(=O)(OCC)C(CS)CCCc1ccccc1 (configuration not stated); > 500 µg/mL
O=P(O)(O)C(CS)CCCc1ccccc1 (configuration not stated); 1000 µg/mL
CCOP(=O)(OCC)C(CS)CCc1ccccc1 (configuration not stated); > 500 µg/mL
